Tested on: mouse
Assay Explanation: Inhibition of spontaneous motor activity (Dews instrument)
Type: in vivo
Condition Parameters: per os, 60 min before test, 30 min recording; sedative effect

Molecule: CN1C(=O)CN=C(c2ccccc2)c2cc(Cl)ccc21 [Diazepam, reference compound]
Subject Of Test: mouse
Result Comparator: =
ID50 in mg/kg po. (mg/kg): 7.0
--
Molecule: O=c1cc(NCCN2CCN(c3ccccc3)CC2)cn[nH]1
Subject Of Test: mouse
Result Comparator: =
ID50 in mg/kg po. (mg/kg): 60.0
--
Molecule: O=c1cc(NCCN2CCN(c3ncccn3)CC2)cn[nH]1
Subject Of Test: mouse
Result Comparator: >
ID50 in mg/kg po. (mg/kg): 100.0
--
Molecule: O=c1cc(NCCN2CCN(c3ccccc3F)CC2)cn[nH]1
Subject Of Test: mouse
Result Comparator: =
ID50 in mg/kg po. (mg/kg): 21.0

====

Smiles Record: O=c1cc(NCCN2CCN(c3ccccc3)CC2)cn[nH]1
melting point: 147 to 149 °C
//
Smiles Record: O=c1cc(NCCN2CCN(c3ccc(F)cc3)CC2)cn[nH]1
melting point: 96 to 98 °C
//
Smiles Record: O=c1cc(NCCN2CCN(c3ccccc3F)CC2)cn[nH]1
melting point: 103 to 105 °C
//
Smiles Record: O=c1cc(NCCN2CCN(c3ncccn3)CC2)cn[nH]1
melting point: 199 to 201 °C
